# target or test system: Neuraminidase (Influenza A virus (A/Puerto Rico/8/1934(H1N1)))
# Sequence (P03468 whole entry): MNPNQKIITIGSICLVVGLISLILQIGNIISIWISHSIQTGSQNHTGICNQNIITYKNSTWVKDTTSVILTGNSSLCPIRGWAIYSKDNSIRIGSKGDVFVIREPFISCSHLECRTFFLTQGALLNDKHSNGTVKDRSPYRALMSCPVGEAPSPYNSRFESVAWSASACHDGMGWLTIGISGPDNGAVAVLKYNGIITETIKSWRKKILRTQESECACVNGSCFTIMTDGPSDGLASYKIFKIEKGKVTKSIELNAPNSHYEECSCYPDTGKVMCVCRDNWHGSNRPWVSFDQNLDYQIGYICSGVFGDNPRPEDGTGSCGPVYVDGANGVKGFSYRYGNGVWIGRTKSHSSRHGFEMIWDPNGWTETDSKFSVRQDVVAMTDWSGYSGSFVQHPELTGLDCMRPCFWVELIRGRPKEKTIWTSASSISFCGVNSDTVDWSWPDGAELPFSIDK
# method description: Inhibition of Human influenza virus A/PR/8/34 (H1N1) neuraminidase using 4-MU-Neu5Ac as substrate after 30 mins by fluorimetry
Provide the recorded EC50 for the entries that follow.
Write the value in mM as a bare number.

# lookup: EC50 of `C=CC(=O)N[C@H]1[C@H]([C@H](O)[C@H](O)CO)O[C@@](SCCCCCCCCCCCC)(C(=O)O)C[C@@H]1O`
1.35

What do we get for C=CC(=O)N[C@H]1[C@H]([C@H](O)[C@H](O)CO)OC(O)(C(=O)O)C[C@@H]1O (stereo partly drawn) ?
2.48

What do we get for `C=CC(=O)NCCCCCC(=O)N[C@H]1[C@H]([C@H](O)[C@H](O)CO)O[C@@](SCCCCCCCCCCCC)(C(=O)O)C[C@@H]1O` ?
0.743
